# Test Target: Human immunodeficiency virus type 1 integrase (Human immunodeficiency virus 1, UniProt Q7ZJM1)
# Sequence (Q7ZJM1 whole entry): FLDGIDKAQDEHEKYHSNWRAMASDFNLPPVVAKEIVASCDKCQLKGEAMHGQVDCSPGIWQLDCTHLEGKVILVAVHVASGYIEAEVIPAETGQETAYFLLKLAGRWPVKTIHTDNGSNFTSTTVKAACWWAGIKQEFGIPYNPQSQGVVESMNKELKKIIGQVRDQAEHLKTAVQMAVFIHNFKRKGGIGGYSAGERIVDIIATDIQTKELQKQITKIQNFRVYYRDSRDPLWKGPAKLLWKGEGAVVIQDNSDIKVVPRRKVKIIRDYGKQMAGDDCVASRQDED
# Method: Inhibition of HIV1 integrase strand transfer activity
For each of the molecules below, state its IC50.
One number for each entry, in µM.

Recorded results for 2 molecules are shown here.
COc1ccc(/C=C2\C(=O)N(c3cccc(Br)c3)N=C2COC(C)=O)cc1OCc1ccc(F)cc1    57
COc1ccc(/C=C2\C(=O)N(c3cc(Cl)cc(Cl)c3)N=C2C(F)(F)F)cc1OCc1ccc(F)cc1    12

Query: So what's the measured IC50 for this one? "COc1ccc(/C=C2\C(=O)N(c3cccc([N+](=O)[O-])c3)N=C2C(=O)O)cc1Cc1ccc(F)cc1"
Result: 11
